details: PAMPA
Where a SMILES comes first, the peptide text is derived from it. [ ]: non-standard residue; d: D form. NMeF = CN[C@@H](Cc1ccccc1)C(=O)O; NMeL = CN[C@@H](CC(C)C)C(=O)O; dNMeL = CN[C@H](CC(C)C)C(=O)O; NMeV = CN[C@H](C(=O)O)C(C)C; Nle = CCCC[C@H](N)C(=O)O; dNMeA = CN[C@H](C)C(=O)O
test.readout: PAMPA_R1
Give bare numbers.

Some compounds with recorded PAMPA_R1:
compound	readout.number
CC(C)C[C@@H]1C(=O)N(C)[C@@H](CC(C)C)C(=O)N2CCC[C@@H]2C(=O)N[C@H](CC(C)C)C(=O)N[C@H](C)C(=O)N2CCC[C@@H]2C(=O)N2CCC[C@H]2C(=O)N[C@@H](C)C(=O)N[C@H](Cc2ccccc2)C(=O)N[C@H](CC(C)C)C(=O)N[C@@H](C(C)C)C(=O)N1C (single isomer, unassigned) [Design D11.9.p1]	1.04E-06
CC[C@H](C)[C@@H]1NC(=O)[C@H](CC(C)C)N(C)C(=O)[C@H]2CCCN2C(=O)[C@H]2CCCN2C(=O)[C@H](Cc2ccccc2)NC(=O)[C@@H](CC(C)C)NC(=O)[C@H]2CCCN2C(=O)[C@@H]2CCCN2C1=O [Design D8.27, PHE DPRO DPRO *LEU ILE PRO DPRO DLEU] (cyclo(F[dP][dP][NMeL]IP[dP][dL]))	2.88E-07
CC[C@H](C)[C@@H]1NC(=O)[C@@H](CC(C)C)NC(=O)[C@H](CC(C)C)N(C)C(=O)[C@H](Cc2ccccc2)NC(=O)CN(C)C(=O)[C@@H]2CCCN2C(=O)[C@H](C(C)C)NC(=O)[C@H](Cc2ccccc2)N(C)C(=O)[C@H]2CCCN2C(=O)[C@H](CC(C)C)NC1=O (single isomer, unassigned) [Design D10.1.p1]	4.75E-06
CC(C)C[C@@H]1NC(=O)[C@H](Cc2ccccc2)N(C)C(=O)[C@H]2CCCN2C(=O)[C@@H](CC(C)C)NC(=O)[C@@H](CC(C)C)NC(=O)[C@H](C)NC(=O)[C@H]2CCCN2C(=O)[C@@H]2CCCN2C(=O)[C@@H](C(C)C)NC1=O [Design D9.32] (cyclo(A[dL][dL][dP][NMeF]L[dV]P[dP]))	2.62E-07
CC[C@H](C)[C@@H]1NC(=O)[C@@H](C)NC(=O)[C@@H]2CCCN2C(=O)[C@H]2CCCN2C(=O)[C@@H]2CCCN2C(=O)[C@@H](C)NC(=O)[C@@H](Cc2ccccc2)NC(=O)[C@@H](CC(C)C)N(C)C(=O)[C@@H](CC(C)C)N(C)C1=O [Design D9.15] (cyclo([dA]I[dNMeL][dNMeL][dF][dA]P[dP]P))	9.95E-07
CC(C)C[C@@H]1C(=O)N(C)[C@H](C)C(=O)N(C)[C@@H](C(C)C)C(=O)N2CCC[C@@H]2C(=O)N[C@H](C)C(=O)N[C@@H](Cc2ccccc2)C(=O)N2CCC[C@@H]2C(=O)N2CCC[C@H]2C(=O)N[C@H](C(C)C)C(=O)N[C@@H](C(C)C)C(=O)N1C [Design D10.29] (cyclo([dV]V[dNMeL][dNMeA][NMeV][dP][dA]F[dP]P))	3.87E-07
CC[C@@H](C)[C@H]1NC(=O)[C@H]2CCCN2C(=O)[C@H]([C@@H](C)CC)NC(=O)[C@H](CC(C)C)N(C)C(=O)[C@H]2CCCN2C(=O)[C@@H]2CCCN2C(=O)[C@H](Cc2ccccc2)N(C)C(=O)[C@H](Cc2ccccc2)NC(=O)[C@H]([C@@H](C)CC)NC1=O [Design D9.13, DPRO DILE ILE PHE *PHE PRO DPRO *LEU ILE] (cyclo(F[NMeF]P[dP][NMeL]I[dP][dI]I))	3.63E-06
CC[C@H](C)[C@@H]1NC(=O)[C@@H](C)N(C)C(=O)[C@@H](C)N(C)C(=O)[C@@H]2CCCN2C(=O)[C@H](CC(C)C)NC(=O)[C@H](CC(C)C)NC(=O)[C@@H](CC(C)C)NC(=O)[C@@H]2CCCN2C(=O)[C@H]2CCCN2C1=O [Design D9.11] (cyclo([dL]LLP[dNMeA][dNMeA]I[dP]P))	2.61E-07

// batch mode: one PAMPA_R1 value per listed entry
1. CCCC[C@@H]1NC(=O)[C@@H]2CCCN2C(=O)[C@@H](C(C)C)NC(=O)[C@@H](C)N(C)C(=O)[C@@H](CC(C)C)NC(=O)[C@@H](CC(C)C)NC(=O)[C@@H]2CCCN2C(=O)[C@H]2CCCN2C1=O [Design D8.29, MET DPRO PRO DLEU DLEU *DALA DVAL PRO] (cyclo([dL][dL][dNMeA][dV]P[Nle][dP]P))
2. CC(C)C[C@@H]1NC(=O)[C@@H]2CCCN2C(=O)[C@@H](Cc2ccccc2)NC(=O)[C@H](C)N(C)C(=O)[C@H](CC(C)C)NC(=O)[C@H](CC(C)C)N(C)C(=O)[C@@H](C)NC(=O)[C@@H](CC(C)C)NC(=O)[C@@H]2CCCN2C(=O)[C@@H](Cc2ccccc2)NC1=O (single isomer, unassigned) [Design D10.2.p1]

1. 3.98E-07
2. 4.51E-06
